- Test system: peripheral blood mononuclear cells (PBMC) with allogeneic PBMC or RPMI1788 stimulator cells
- experimentalDetails: Mixed lymphocyte reaction (MLR) test, [3H]-thymidine incorporation
- Type: cell-based, human
- conditionInfo: Table 1; 5 days incubation + 16 h thymidine
Classify by IC50. Ranges: LOW: < 10 µM; MID: ≥ 10 µM and < 60 µM; HIGH: ≥ 60 µM

* Cn1c(=O)c2nc(/C=C/C=Cc3ccccc3)cnc2n(C)c1=O | HIGH
* CC(C)CNc1nc2c(nc1C#N)c(=O)n(C)c(=O)n2C | HIGH
* Cn1c(=O)c2nc(C(Cl)Cl)c(SCc3ccccc3)nc2n(C)c1=O | MID
* Cn1c(=O)c2nc(C=O)c(O)nc2n(C)c1=O [Example 45, 6-formyl-7-hydroxy-1,3-dimethyl-lumazine] | HIGH
* CCCn1c(=O)c2nc(-c3ccccc3)c(O)nc2n(CCC)c1=O | HIGH
* Cn1c(=O)c2ncc(C(Br)C(Br)c3ccccc3)nc2n(C)c1=O (stereo not drawn) | MID
* CCOC(=O)c1nc2c(=O)n(C)c(=O)n(C)c2nc1SCC | HIGH
* Cn1c(=O)c2nc(/C=C/c3ccncc3)cnc2n(C)c1=O | MID
* CCOc1nc2c(nc1-c1ccccc1)c(=O)n(C)c(=O)n2C | MID
* Cn1c(=O)c2nc(C(Br)C(Br)c3ccccc3)cnc2n(C)c1=O (stereo not drawn) | MID
* CCOC(=O)CSc1nc2c(nc1C#N)c(=O)n(C)c(=O)n2C | MID
* COC(=O)C(Br)C(Br)c1cnc2c(=O)n(C)c(=O)n(C)c2n1 (stereo not drawn) | LOW
* Cn1c(=O)c2nc(C=O)c(NCCO)nc2n(C)c1=O | HIGH
* CCSC(C[N+](=O)[O-])c1cnc2c(n1)c(=O)n(C)c(=O)n2C (stereo not drawn) | LOW
* COc1nc2c(nc1C=Cc1ccccc1)c(=O)n(C)c(=O)n2C | MID
* Cn1c(=O)c2ncc(C(Br)=Cc3ccccc3)nc2n(C)c1=O | LOW
* Cn1c(=O)c2nc(C3OCCO3)c(Cl)nc2n(C)c1=O | MID
